Molecular target: recombinant human Lp-PLA2 enzyme (Homo sapiens, UniProt Q13093)
Sequence (Q13093 22-441): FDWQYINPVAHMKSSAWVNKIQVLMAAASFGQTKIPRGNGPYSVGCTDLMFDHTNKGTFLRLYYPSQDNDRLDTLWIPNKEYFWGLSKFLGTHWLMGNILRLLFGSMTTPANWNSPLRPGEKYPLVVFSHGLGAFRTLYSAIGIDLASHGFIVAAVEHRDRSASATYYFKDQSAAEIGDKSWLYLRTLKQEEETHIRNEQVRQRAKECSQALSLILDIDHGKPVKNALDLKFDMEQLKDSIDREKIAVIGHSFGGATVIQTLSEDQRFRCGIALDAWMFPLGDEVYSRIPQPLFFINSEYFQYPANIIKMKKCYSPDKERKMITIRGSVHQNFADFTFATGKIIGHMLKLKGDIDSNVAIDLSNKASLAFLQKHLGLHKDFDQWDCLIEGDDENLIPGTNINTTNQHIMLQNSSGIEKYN
Test: Recombinant human Lp-PLA2 (rhLp-PLA2) assay (PED6 assay)
Format: biochemical
Conditions: PED6 substrate; enzyme 4 nM or 110 pM; 30-min pre-incubation; fluorescence ex 480/em 540; read-out: rhLp-PLA2 (pIC50) (converted)
Form field: IC50 (one value per entry).
Just the number please, in nM, no unit attached.

Here are 2 compounds together with their reported answers.
- O=c1nc(OCc2cc(F)c(Oc3cccc(OC(F)(F)F)c3)c(F)c2)cc2n1CC1CCCN2C1 (centres unmarked): 0.316
- O=c1nc(OCc2cc(F)cc(F)c2)cc2n1C[C@H]1CCCN2C1: 3.16

API: value(readout=IC50, system=recombinant human Lp-PLA2 enzyme (Homo sapiens, UniProt Q13093)) for record O=c1nc(OCc2cc(F)c(Oc3ccc(OC(F)(F)F)c(Cl)c3)c(F)c2)cc2n1CC1CCCN2C1 (centres unmarked)
0.2

// query: O=c1nc(OCc2cc(F)c(Oc3ccc(C(F)(F)F)cc3)c(F)c2)cc2n1CC1CCCN2C1 (centres unmarked)
0.0631

// query: "O=c1nc(OCc2cc(F)cc(F)c2)cc2n1C[C@@H]1CN2CCO1"
3.98

// query: Cc1ccc(Oc2c(F)cc(COc3cc4n(c(=O)n3)CC3CCCN4C3)cc2F)cn1 (centres unmarked)
0.0794

// query: Cc1cc(Oc2c(F)cc(COc3cc4n(c(=O)n3)CC3CCCN4C3)cc2F)ccn1 (centres unmarked)
0.0631

// query: O=c1nc(OCc2cc(F)c(Oc3ccc(Cl)c(C(F)(F)F)c3)c(F)c2)cc2n1CC1CCCN2C1 (centres unmarked)
0.0398

// query: O=c1nc(OCc2cc(F)c(F)cc2F)cc2n1C[C@H]1CCCN2C1 [Compound 22]
31.6

// query: O=c1nc(OCc2ccc(F)cc2F)cc2n1CC1CCCN2C1 (centres unmarked)
2.51

// query: "Cc1ccc(Oc2c(F)cc(COc3cc4n(c(=O)n3)C[C@H]3CN4CCO3)cc2F)cn1"
0.126
